Data provenance is paper PMC7327383.

Kindly supply the reported Selectivity ratio α1A vs α1B values for the records listed here.
Target: human α1A-adrenoceptor (Homo sapiens, UniProt P35348)
Construct: CHO cells stably expressing either the full‐length human α1A, α1B, or α1D‐adrenoceptor
Sequence (P35348 1-466): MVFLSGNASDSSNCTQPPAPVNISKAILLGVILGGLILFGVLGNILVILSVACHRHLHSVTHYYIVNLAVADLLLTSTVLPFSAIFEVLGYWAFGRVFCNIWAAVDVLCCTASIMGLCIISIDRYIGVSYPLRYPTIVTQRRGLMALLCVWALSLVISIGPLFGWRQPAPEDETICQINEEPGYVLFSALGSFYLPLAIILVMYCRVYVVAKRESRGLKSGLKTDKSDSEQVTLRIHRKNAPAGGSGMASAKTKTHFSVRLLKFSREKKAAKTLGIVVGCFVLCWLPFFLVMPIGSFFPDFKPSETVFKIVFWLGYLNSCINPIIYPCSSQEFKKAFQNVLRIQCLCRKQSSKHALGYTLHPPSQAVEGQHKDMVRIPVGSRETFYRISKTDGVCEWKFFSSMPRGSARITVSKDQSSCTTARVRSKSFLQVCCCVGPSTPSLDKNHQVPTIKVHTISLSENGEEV
Experiment: [3H]prazosin whole-cell competition binding, CHO-α1A cells
Settings: ratio of KD values; printed under α1A = higher α1A affinity; 1.0 under vs = none

## Task Given the compound `CN1CC[C@]2(CCN3CCc4c(oc5ccccc45)[C@@H]3C2)N(C)C1=O.Cl` , write its reported Selectivity ratio α1A vs α1B.
## Result 20 fold

## Task Given the compound Cn1cc(C(F)(F)F)nc1-c1ccc(OCC(O)CNCCOc2ccc(O)c(C(N)=O)c2)cc1 (stereo not drawn) [CGP20712A] , write its reported Selectivity ratio α1A vs α1B.
## Result >8.5 fold

## Task Given the compound CC(C)OC(=O)c1cc2c(OCC(O)CNC(C)(C)C)cccc2[nH]1 (stereo not drawn) , write its reported Selectivity ratio α1A vs α1B.
## Result >17 fold

====

Molecular target: human α1B-adrenoceptor (Homo sapiens)
Construct: CHO cells stably expressing either the full‐length human α1A, α1B, or α1D‐adrenoceptor
Sequence (P35368 1-520): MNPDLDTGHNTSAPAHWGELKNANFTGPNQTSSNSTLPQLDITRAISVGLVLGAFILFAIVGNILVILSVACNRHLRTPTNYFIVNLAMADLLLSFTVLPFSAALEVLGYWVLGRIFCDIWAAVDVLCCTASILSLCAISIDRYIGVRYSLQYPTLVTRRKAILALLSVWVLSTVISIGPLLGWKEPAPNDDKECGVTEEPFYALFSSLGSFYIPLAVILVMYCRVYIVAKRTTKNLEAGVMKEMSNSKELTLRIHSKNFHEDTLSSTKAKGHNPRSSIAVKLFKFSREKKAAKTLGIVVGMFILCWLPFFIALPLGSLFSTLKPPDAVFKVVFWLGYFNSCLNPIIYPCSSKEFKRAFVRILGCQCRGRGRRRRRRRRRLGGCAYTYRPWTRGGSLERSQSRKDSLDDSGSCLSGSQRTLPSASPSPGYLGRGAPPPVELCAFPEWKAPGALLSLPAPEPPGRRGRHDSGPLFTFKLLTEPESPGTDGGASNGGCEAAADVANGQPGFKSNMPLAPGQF
Experiment: [3H]prazosin whole-cell competition binding, CHO-α1B cells
Settings: ratio; 1 = no selectivity for a subtype over another
Parameter Measured: selectivity α1B vs α1D

## Task Please report selectivity α1B vs α1D with human α1B-adrenoceptor (Homo sapiens) for item CCN1CCCC1CNC(=O)c1cc(S(N)(=O)=O)ccc1OC (stereo not drawn) [Sulpiride] .
## Result >4.6

## Task Please report selectivity α1B vs α1D with human α1B-adrenoceptor (Homo sapiens) for item CC(C)OC(=O)c1cc2c(OCC(O)CNC(C)(C)C)cccc2[nH]1 (stereo not drawn) .
## Result >12

## Task Please report selectivity α1B vs α1D with human α1B-adrenoceptor (Homo sapiens) for item COc1ccc(C(CN(C)C)C2(O)CCCCC2)cc1 (stereo not drawn) .
## Result >24
